- MEASUREMENT_TARGET: Androgen receptor (Rattus norvegicus, UniProt P15207); further: assay procedure not described here
- Sequence (P15207 whole entry): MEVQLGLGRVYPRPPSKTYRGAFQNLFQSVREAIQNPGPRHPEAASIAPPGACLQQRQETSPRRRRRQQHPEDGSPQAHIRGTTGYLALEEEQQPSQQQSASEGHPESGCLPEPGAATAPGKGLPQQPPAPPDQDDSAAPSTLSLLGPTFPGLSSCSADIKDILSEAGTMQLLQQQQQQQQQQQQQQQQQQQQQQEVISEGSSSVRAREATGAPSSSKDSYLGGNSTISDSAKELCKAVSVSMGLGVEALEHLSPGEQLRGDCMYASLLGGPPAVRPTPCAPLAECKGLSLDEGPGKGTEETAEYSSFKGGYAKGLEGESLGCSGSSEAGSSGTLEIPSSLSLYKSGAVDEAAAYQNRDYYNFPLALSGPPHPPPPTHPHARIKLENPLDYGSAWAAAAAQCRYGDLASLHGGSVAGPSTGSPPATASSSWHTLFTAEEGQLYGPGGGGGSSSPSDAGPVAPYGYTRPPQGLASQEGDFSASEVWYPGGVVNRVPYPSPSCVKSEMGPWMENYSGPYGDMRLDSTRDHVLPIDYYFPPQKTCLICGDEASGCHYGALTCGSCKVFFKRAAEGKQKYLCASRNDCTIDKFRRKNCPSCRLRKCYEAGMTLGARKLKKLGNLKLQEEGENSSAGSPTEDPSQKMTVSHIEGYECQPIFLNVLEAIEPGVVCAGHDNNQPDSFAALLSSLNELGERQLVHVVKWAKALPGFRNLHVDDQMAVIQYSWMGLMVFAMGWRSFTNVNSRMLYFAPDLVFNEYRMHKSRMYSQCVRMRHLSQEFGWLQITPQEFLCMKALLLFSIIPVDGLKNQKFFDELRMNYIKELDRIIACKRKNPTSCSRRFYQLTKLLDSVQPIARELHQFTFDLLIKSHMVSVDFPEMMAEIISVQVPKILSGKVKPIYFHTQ
- Assay type: functional
ENDPOINT: AC50

CO/N=C(\C(=O)N[C@@H]1C(=O)N2C(C(=O)[O-])=C(C[N+]3(C)CCCC3)CS[C@H]12)c1csc(N)n1
> 300 µM
C1=Cc2cccc(OCC3CNCCO3)c2C1 (stereo unspecified) [INDELOXAZINE]
> 30 µM
CC(N)Cc1ccccc1 (stereo unspecified) [AMPHETAMINE]
> 30 µM
Cc1nc2ccc(CN(C)c3ccc(C(=O)N[C@@H](CCC(=O)O)C(=O)O)s3)cc2c(=O)[nH]1 [RALTITREXED]
> 30 µM
O=C1NCCN1CCN1CCC(c2cn(-c3ccc(F)cc3)c3ccc(Cl)cc23)CC1 [SERTINDOLE]
> 30 µM
COC(=O)N[C@H](C(=O)N1CCC[C@H]1c1nc(-c2ccc(-c3ccc(-c4c[nH]c([C@@H]5CCCN5C(=O)[C@@H](NC(=O)OC)C(C)C)n4)cc3)cc2)c[nH]1)C(C)C
> 30 µM
